Form field: growth (one value per entry).
system: MALME-3M melanoma; test: NCI-60 one-dose screen, 48 h (100 = growth as untreated, 0 = no growth, -100 = all killed); settings: 10 µM unless noted
Compounds without any hit were thinned out: in the full panel of roughly 83,000, 20% have a hit. Active and inactive are the calls of the source. How the source made its calls: active means growth percent below 10; inactive means the rest.

| compound | growth |
| --- | --- |
| CC1=NN(c2cccc(Cl)c2)C(=O)/C1=C\c1cn(CC(O)CN2CCCCC2)c2ccccc12 (configuration not stated) | 32.9% (inactive) |
| C[C@@H]1CC[C@@H]2[C@@H]1[C@H](OC(=O)/C=C/c1ccccc1)[C@]1(CCCOCCOCCOCCOC(=O)CCCC[C@@H]3SC[C@@H]4NC(=O)N[C@@H]43)C[C@@H](OC(=O)CO)[C@@]2(C)O1 | 99.6% (inactive) |
| Cc1c(Cl)cccc1NS(=O)(=O)c1ccccc1 | 124% (inactive) |
| C=CCN1C(=O)[C@]2(SC1=S)[C@H](c1cccc(Cl)c1)CN(C)[C@]21C(=O)NC2C=CC(Cl)=C[C@H]21 (some centres not stated) | 35.7% (inactive) |
| Clc1ccc2[nH]c3c(NCCCN4CCOCC4)ncnc3c2c1 | 93.9% (inactive) |
| COc1cc(-c2ccc(-c3ccc(C(=N)N)nc3)s2)cc(OC)c1OC | 24.7% (inactive) |
| CS(=O)(=O)c1ccc(N/N=C/c2c(-c3ccc(S(C)(=O)=O)cc3)[nH]c3ccc(F)cc23)cc1 | 10.7% (inactive) |
| O=C1Nc2ccccc2/C1=N/N=C/c1c[nH]c2ccccc12 | 71.8% (inactive) |
| COc1ccc2c(c1)/C(=C\c1sc(=S)[nH]c1O)C(C(=O)O)=N2 | 94.7% (inactive) |
| Cc1ccccc1NC(=O)CN(C)C | 87.2% (inactive) |
| Nc1nc(Nc2ccc(Cl)cc2)nn1S(=O)(=O)c1ccc(-c2ccc(F)cc2)cc1 | 113% (inactive) |
| N#Cc1c(N)nc2c(nnn2-c2cccc(Br)c2)c1N | 115% (inactive) |
| C[C@@H]1CC[C@@H]2[C@@H]1[C@H](OC(=O)c1ccc3ccccc3c1)[C@]1(C3CCCCC3)C[C@@H](OC(=O)CO)[C@@]2(C)O1 | 99.9% (inactive) |
| O=C1N/C(=N/O)S/C1=C/c1cn(-c2ccccc2)nc1-c1ccccc1 | 141% (inactive) |
| CN1C[C@@H](c2ccc(Cl)cc2)[C@]2(NC(=S)N(c3ccc(F)c(Cl)c3)C2=O)[C@@]12C(=O)NC1C=CC(Cl)=C[C@H]12 (some centres not stated) | 91.2% (inactive) |
| COc1ccc(-c2nc3ncccn3c2/C=C/C(=O)c2cc(OC)c(OC)c(OC)c2)cc1 | 61.8% (inactive) |
| CCc1c(C(=O)N[C@@H]2c3cc(Cl)ccc3CC[C@@H]2O)[nH]c(C)c1C(C)=O | 110% (inactive) |
| Cc1cc(-c2noc(C(F)(F)F)n2)ccc1N1CCN(c2cc(C(=O)N(C)C)no2)CC1 | 78.5% (inactive) |
| CCOc1ccc(-c2nc3ccc(-c4nc5ccc(N6CCN(C)CC6)cc5[nH]4)cc3[nH]2)cc1OCC | -34.7% (active) |
| CCOC(=O)c1ccc(NC(=O)CCCN(CC)CC)cc1 | 98.5% (inactive) |
| C=C1C(=O)O[C@H]2[C@H]1CC/C(C(=O)NCCCCCCCCNC(=O)/C1=C/CC[C@@]3(C)O[C@H]3[C@H]3OC(=O)C(=C)[C@@H]3CC1)=C\CC[C@@]1(C)O[C@@H]21 | 16.4% (inactive) |
| COc1ccc(N=c2nc3sc4cc(Cl)ccc4n3c(N)c2C#N)cc1 | 77.4% (inactive) |

----------
Form field: growth (one value per entry).
system: RPMI-8226 leukemia; assay: NCI-60 one-dose screen, 48 h (100 = growth as untreated, 0 = no growth, -100 = all killed); conditions: 10 µM unless noted
This is part of a sample that, as a whole, favours compounds with a hit. Of some 83,000 tested, about 20% had one in any assay.

| compound | growth / % |
| --- | --- |
| COc1cc2c(=O)n(CCCn3ccnc3)c3c4cc5c(cc4ccc3c2cc1OC)OCO5 | -31.9 |
| CN(C)c1ccc(/C=N/NC(=O)COc2cc(=O)n(C)c3ccccc23)cc1 | 107 |
| CS(=O)(=O)c1ccc(-c2nc3cc(Cl)ccc3n2CC(=O)NO)cc1 | 90.9 |
| C=C1C(=O)O[C@H]2[C@H]1CC/C(Cn1cc(CNCCc3c[nH]c4ccccc34)nn1)=C\CC[C@@]1(C)O[C@@H]21 | 76.5 |
| Cc1nc2ccc(C(=O)NCc3cc(C(=O)O)c(C)o3)cc2nc1C | 108 |
| COc1ccc(C2CC(c3cnccn3)=NN2)cc1OC (stereo not given) | 82.6 |
| CCOc1ccc2nc(-c3cccc(OCC(=O)NC(C)C)c3)nc(Nc3ccc(-c4cn[nH]c4)cc3)c2c1 | -18.4 |
| OC(c1cccc(OCc2ccccc2)c1)c1nnc(-c2ccccc2)o1 (stereo not given) | 57.8 |
| Cc1cc(Cc2cc(C)cc(C(C)(C)C)c2O)c(O)c(C(C)(C)C)c1 | 32.2 |
| O=C(C[C@@]1(O)C(=O)Nc2c(Cl)ccc(Cl)c21)c1ccc(C2CC2)cc1 | 23.4 |
| Cc1cc(=O)[nH]c(N/N=C/c2cc(Br)ccc2O)n1 | 31.2 |
| COc1cc2c(cc1OC)-c1ccc3cc4c(cc3c1N(CCCN1CCCCC1)C2)OCO4 | 14.5 |
| CC(=[N-])N1CCC[C@@H](Nc2c3ccccc3nc3ccccc23)C1.[Cl][Pt].[NH-]CCC[NH-] | 30.1 |
| Cc1nc(Nc2ccccn2)sc1C(=O)/C=C/c1ccc(Br)cc1 | 42.5 |
| COc1ccc(/C(C)=N/NS(=O)(=O)c2ccc(C)cc2)cc1OC | 95.3 |
| O=C(Nc1ccccc1)c1sc(-c2cccc(C(F)(F)F)c2)cc1O | 35.5 |
| CCN(CC)CCCNC(=O)c1ccc(N)cc1O | 94.7 |
| CC(C)n1nc(C#Cc2cccc(NC(=O)c3cccc(C(F)(F)F)c3)c2)c2c(N)ncnc21 | -11.8 |
| CSc1ncc(C)c(Nc2ccc(Cl)cc2)n1 | 102 |
| C=C(Cl)COC(=O)C(C)(C)O | 99.5 |
| COc1cc(-c2ncn(/C=C\c3nnco3)n2)cc(C(F)(F)F)c1 | 76.4 |
| CCCCCCCSc1ccc(C(=O)O)cc1 | 92.1 |
| O=C(NC1CCOCC1)c1ccc2c(c1)CN(c1ncc(Cc3cccc(-n4cccn4)c3)s1)CC2 | 38.3 |
| CN(C)c1ccc(/C=C2\C=C(c3ccccc3)N(CCc3ccccc3)C2=O)cc1 | 93 |
| CCCCCOC(=O)c1cccc(NC(=O)CN(CC)CC)c1 | 96.7 |

----------
test system: NCI/ADR-RES ovarian; assay: NCI-60 one-dose screen, 48 h; conditions: 10 µM unless noted
Compounds without any hit were thinned out: in the full panel of roughly 83,000, 20% have a hit. Activity calls are given as the source filed them. Rule for the calls: active = growth percent below 10; inactive = the rest.
Labels: active, inactive

| compound | group-label |
| --- | --- |
| CCCCCCCC/C=C\CCCCCCCC(=O)Oc1cccc2cccnc12 | inactive |
| Clc1ccc2c(NCCCN3CCN(c4nc(N5CCOCC5)nc5ccccc45)CC3)ccnc2c1 | inactive |
| O=C1CSC(c2ccc(O)cc2)N1c1nnc(Cn2cnnc2)o1 (stereo unspecified) | inactive |
| C/C(=N\NC(=O)Cn1c(-c2ccc(S(C)(=O)=O)cc2)nc2cc(Cl)ccc21)c1ccc(Cl)cc1 | inactive |
| Cl.Fc1c[c-]c(-c2ccccn2)c(F)c1.[Pt].c1ccc([PH+](C[PH+](c2ccccc2)c2ccccc2)c2ccccc2)cc1 | active |
| CC(C)c1ccc(NC(=O)Cc2ccc(Nc3ncnc4cc(-c5cnn(CCN(C)C)c5)ccc34)cc2)cc1 | inactive |
| CN1CCN(C(=O)[C@@]2(C)CC[C@]3(C)CC[C@]4(C)C(=CC[C@@H]5[C@@]6(C)C/C(=C/c7ccncc7)C(=O)C(C)(C)[C@@H]6CC[C@]54C)[C@@H]3C2)CC1 | inactive |
| COc1ccc2cc(-c3ccc(C(=O)NN)c(C)n3)ccc2c1 | inactive |
| Cc1ccc(S(=O)(=O)NN/C(N)=N\S(=O)(=O)c2cc(C)c(Cl)cc2SCc2ccccc2)cc1 | inactive |
| CCc1c(C(=O)N[C@@H]2c3cc(Cl)ccc3CC[C@@H]2O)[nH]c(C)c1C(C)=O | inactive |
| O=C1C(Cl)C(c2ccccc2Cl)N1n1cnnc1 (stereo unspecified) | inactive |
| O=[N+]([O-])c1cccc(/C=C/c2ccccn2)c1 | inactive |
| CNC(=O)NCC1OC(n2cnc3c(NC(=O)Nc4ccccc4)ncnc32)C2OC(C)(C)OC12 (stereo unspecified) | inactive |
| O=c1ccn(C2OC(F)(CO)C(O)C2F)c(=O)[nH]1 (stereo unspecified) | inactive |
| COc1cc2nc(Nc3ccc(F)cc3)nc(N)c2cc1OC | inactive |
| COc1ccc(OC)c(C(=O)Nc2cccc(-c3cc(=O)c4ccccc4o3)c2)c1 | inactive |
